Origin of the recorded values: paper PMC13415951

# study target: HvUGT13248 (Hordeum vulgare subsp. vulgare)
# Sequence (M0Y4P1 1-475): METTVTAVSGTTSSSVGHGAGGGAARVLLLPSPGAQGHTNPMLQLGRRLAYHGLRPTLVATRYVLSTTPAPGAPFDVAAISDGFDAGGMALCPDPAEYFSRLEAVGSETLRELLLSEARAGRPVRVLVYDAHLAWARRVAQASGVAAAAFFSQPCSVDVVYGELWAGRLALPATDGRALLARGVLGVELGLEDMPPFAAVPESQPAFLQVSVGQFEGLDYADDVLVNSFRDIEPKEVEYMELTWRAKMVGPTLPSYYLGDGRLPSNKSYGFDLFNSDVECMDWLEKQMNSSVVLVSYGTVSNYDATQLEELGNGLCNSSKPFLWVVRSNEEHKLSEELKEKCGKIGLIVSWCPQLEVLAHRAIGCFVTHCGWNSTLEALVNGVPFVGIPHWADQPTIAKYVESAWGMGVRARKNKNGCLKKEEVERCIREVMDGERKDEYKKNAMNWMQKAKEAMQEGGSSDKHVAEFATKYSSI
measurement type: Ki
I'd appreciate it if you included the unit after the number.

Quick note, Ki for CC1(C)CCC[C@]2(C)[C@@H]3[C@H]1[C@@H](O)[C@@]2(C)C[C@H]3O [CUL, culmorin] landed at 56 µM

* * *

# study target: OsUGT79 H122A/L123A/Q202A (Oryza sativa subsp. japonica, UniProt Q7XT97, H122A/L123A/Q202A)
# Sequence (Q7XT97 1-466 H122A/L123A/Q202A): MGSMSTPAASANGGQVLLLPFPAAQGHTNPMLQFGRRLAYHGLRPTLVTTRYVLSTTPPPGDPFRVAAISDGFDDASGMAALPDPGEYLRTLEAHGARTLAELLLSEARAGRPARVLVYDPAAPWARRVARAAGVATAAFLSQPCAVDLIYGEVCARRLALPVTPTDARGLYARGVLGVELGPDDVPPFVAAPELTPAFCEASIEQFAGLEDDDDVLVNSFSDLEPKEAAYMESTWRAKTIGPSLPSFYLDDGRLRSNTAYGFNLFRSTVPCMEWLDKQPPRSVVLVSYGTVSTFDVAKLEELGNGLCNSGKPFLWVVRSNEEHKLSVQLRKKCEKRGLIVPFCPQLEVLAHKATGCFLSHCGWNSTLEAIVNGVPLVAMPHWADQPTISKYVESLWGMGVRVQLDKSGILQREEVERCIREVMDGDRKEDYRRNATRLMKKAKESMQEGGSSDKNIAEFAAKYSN
# method: biochemical
measurement type: Ki

# Ki of CC1(C)CCC[C@]2(C)[C@@H]3[C@H]1[C@@H](O)[C@@]2(C)C[C@H]3O [CUL, culmorin] = 65 µM

* * *

# study target: BdUGT5g03300 (Brachypodium distachyon, UniProt I1IW79)
# Sequence (I1IW79 1-469): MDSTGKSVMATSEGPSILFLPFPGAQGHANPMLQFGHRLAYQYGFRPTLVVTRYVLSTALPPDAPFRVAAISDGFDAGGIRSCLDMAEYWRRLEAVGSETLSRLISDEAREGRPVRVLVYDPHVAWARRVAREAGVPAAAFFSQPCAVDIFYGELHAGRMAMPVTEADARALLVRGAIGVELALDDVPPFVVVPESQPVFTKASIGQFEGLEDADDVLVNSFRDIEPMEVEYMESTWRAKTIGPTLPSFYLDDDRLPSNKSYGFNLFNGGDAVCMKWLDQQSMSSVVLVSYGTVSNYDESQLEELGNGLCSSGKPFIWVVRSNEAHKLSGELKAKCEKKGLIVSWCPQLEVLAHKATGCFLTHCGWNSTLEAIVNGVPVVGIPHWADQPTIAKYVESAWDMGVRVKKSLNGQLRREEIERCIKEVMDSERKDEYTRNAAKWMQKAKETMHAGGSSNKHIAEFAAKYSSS
# run parameters: read-out: KD of CUL at the acceptor binding site (implied by kinetics)
pKd: −log10 of the molar value.
measurement type: pKd

Reported pKd for CC1(C)CCC[C@]2(C)[C@@H]3[C@H]1[C@@H](O)[C@@]2(C)C[C@H]3O [CUL, culmorin] was ~6.00

* * *

# study target: UniProt I1IW79
# Sequence (I1IW79 1-469): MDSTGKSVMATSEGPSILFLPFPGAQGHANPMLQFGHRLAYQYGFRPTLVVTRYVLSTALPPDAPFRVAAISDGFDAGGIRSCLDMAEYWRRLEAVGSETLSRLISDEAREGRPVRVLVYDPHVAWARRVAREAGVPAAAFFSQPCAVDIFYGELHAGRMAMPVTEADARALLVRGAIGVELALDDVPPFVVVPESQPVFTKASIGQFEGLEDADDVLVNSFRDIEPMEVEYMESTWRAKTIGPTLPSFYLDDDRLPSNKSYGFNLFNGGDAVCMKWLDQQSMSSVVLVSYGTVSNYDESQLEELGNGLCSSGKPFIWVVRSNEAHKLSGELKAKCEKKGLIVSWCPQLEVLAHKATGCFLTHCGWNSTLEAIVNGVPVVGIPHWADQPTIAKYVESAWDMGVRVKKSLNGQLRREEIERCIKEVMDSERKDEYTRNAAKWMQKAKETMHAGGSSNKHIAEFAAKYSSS
pKi: −log10 of the molar value.
measurement type: pKi

CC1(C)CCC[C@]2(C)[C@@H]3[C@H]1[C@@H](O)[C@@]2(C)C[C@H]3O has a reported pKi of > 6.00
